sequences and their reported protein stability index
System: Saccharomyces cerevisiae
Method Summary: protein stability index of tFT-peptide fusion (C-terminal peptide) (PSI (0-1 scale)); higher = more stable (slower turnover)
Measurement Setup: genetic background: cdc53-1; temperature: 37 C
Lab note: write the figure by itself, no unit.

   record_sequence              assay_target  reported_value
0     RWRLWGGWWVVG  Saccharomyces cerevisiae           0.727
1     CLFSPFCFILFC  Saccharomyces cerevisiae          0.0391
2     CKRWGVVSYVFV  Saccharomyces cerevisiae           0.655

Could you share which protein stability index value was measured for "RGSLYLILVLIG" ? 0.349

Could you tell me which protein stability index is on file for "FIRLTFLRLSCI" ? 0.623

Which protein stability index value belongs to "VFLACSMTGGDA" ? 0.326

Fill blank: measured protein stability index of the sequence "VFFTSLPPLLRA" is ____. 0.454

* * *

Test system: Saccharomyces cerevisiae
Method Summary: protein stability index of tFT-peptide fusion (C-terminal peptide) (PSI (0-1 scale)); higher = more stable (slower turnover)
Measurement Setup: genetic background: wild type; temperature: 30 C
Assign 1.0 whenever protein stability index does not fall below 0.6; assign 0.0 whenever it does.

Could you verify whether the entry "FCVVFFLSLVFL" shows protein stability index of no less than 0.6? 0.0

Check this sequence for protein stability index at or above 0.6: "DGGGGGGGVAGD" 1.0

Form field: protein stability index at least 0.6? Entry: "PGRHSVRFVFVC" 0.0

Exam item: decide whether the reported protein stability index for "PPPLPGSLLPLP" is at least 0.6. 1.0

Determine whether this sequence has protein stability index no lower than 0.6: "YFGGRGPRGRER" 1.0

* * *

System: Saccharomyces cerevisiae
Method Summary: protein stability index of tFT-peptide fusion (C-terminal peptide) (PSI (0-1 scale)); higher = more stable (slower turnover)
Measurement Setup: genetic background: wild type; temperature: 30 C
Measurement Label: protein stability index
Answer with a bare number; do not write a unit.

These recorded examples may help you get a feel for the data.
>>> print(df.to_string())
                            record_sequence  reported_value
0  QTSGTFLHFSRP [YEL075W-A C-terminal 12 aa]           0.718
1      DKLAQRLRALRG [DID2 C-terminal 12 aa]           0.684
2     QLLNDSPLEDKF [FBP26 C-terminal 12 aa]             0.7

Which measured protein stability index belongs to EGENVRSKVERF [YKL070W C-terminal 12 aa] , tested on Saccharomyces cerevisiae? 0.704

Test system Saccharomyces cerevisiae; read-out protein stability index; what value for LLGFTTGKEVHL [SMF2 C-terminal 12 aa] ? 0.701

* * *

Test system: Saccharomyces cerevisiae
Method Summary: protein stability index of tFT-peptide fusion (C-terminal peptide) (PSI (0-1 scale)); higher = more stable (slower turnover)
Measurement Setup: genetic background: das1 deletion; temperature: 37 C
Measurement Label: protein stability index
Number only, no unit.

What does the data say about its protein stability index? Entry: "SFTPPRVCLCFS" 0.52

Name the reported protein stability index value associated with the sequence "SCRCIIFVCCFW" 0.465

Find the recorded protein stability index belonging to "GRLDHWNKHKYI" and report it. 0.783
